# Assayed target: C3a anaphylatoxin chemotactic receptor (Homo sapiens) (UniProt Q16581)
# Sequence (Q16581 whole entry): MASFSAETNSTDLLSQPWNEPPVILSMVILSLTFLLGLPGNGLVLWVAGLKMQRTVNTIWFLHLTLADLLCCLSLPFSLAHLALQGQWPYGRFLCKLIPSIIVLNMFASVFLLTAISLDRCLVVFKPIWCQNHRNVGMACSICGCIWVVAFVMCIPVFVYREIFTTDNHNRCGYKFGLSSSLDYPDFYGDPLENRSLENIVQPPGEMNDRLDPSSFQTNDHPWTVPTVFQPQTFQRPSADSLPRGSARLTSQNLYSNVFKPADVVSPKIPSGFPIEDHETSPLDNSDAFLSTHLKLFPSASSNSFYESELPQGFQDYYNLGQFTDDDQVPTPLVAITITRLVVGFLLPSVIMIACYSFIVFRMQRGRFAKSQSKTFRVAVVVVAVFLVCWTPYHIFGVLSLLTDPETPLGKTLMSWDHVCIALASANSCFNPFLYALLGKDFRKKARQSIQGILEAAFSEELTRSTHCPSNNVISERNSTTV
# Assay details: Displacement of [125I]-C3a from C3aR in human MDM cells at 20 uM after 60 mins by microbeta scintillation counting analysis
# Type: cell-based
Calls of active or inactive are those of the source. No cut-off for these calls is given here.
Attribute measured: inhibition

Record smiles | Attribute measured | Result
Cc1oc([C@H](CC(C)C)NC(=O)c2cncc(Br)c2)nc1C(=O)N[C@@H](CCCNC(=N)N)C(=O)O | inhibition | inactive
COc1ccc(CCC(=O)N[C@@H](CC(C)C)c2nc(C(=O)N[C@@H](CCCNC(=N)N)C(=O)O)c(C)o2)cc1 | inhibition | 44%
Cc1oc([C@H](CC(C)C)NC(=O)c2ccncc2)nc1C(=O)N[C@@H](CCCNC(=N)N)C(=O)O | inhibition | inactive
Cc1oc([C@H](CC(C)C)NC(=O)c2ccccn2)nc1C(=O)N[C@@H](CCCNC(=N)N)C(=O)O | inhibition | 31%
Cc1oc([C@H](CC(C)C)NC(=O)c2cc3ccccc3s2)nc1C(=O)N[C@@H](CCCNC(=N)N)C(=O)O | inhibition | 14%
Cc1oc([C@H](CC(C)C)NC(=O)NCc2ccccc2)nc1C(=O)N[C@@H](CCCNC(=N)N)C(=O)O | inhibition | 61%
Cc1oc([C@H](CC(C)C)NC(=O)CCC(C)C)nc1C(=O)N[C@@H](CCCNC(=N)N)C(=O)O | inhibition | inactive
COc1cccc(C(=O)N[C@@H](CC(C)C)c2nc(C(=O)N[C@@H](CCCNC(=N)N)C(=O)O)c(C)o2)c1 | inhibition | inactive

Reference source: ChEMBL document CHEMBL3734743
